Test system: Staph, Aureus (Smith)
Test: standard test using mice infected with Staph, Aureus (Smith), subcutaneous treatment
Format: in vivo
Conditions: Staphylococcus aureus, sc, pH 7.4, read-out: CD 50, mice, subcutaneous, isotonic or pH 7.4 buffered aqueous solution; inoculation (a): LD50 of 10-100
Procedure: The above compounds were tested per their antibacterial uses in a standard test, using mice infected with Staph, Aureus (Smith). […] The compounds of the above examples were administered subcutaneously as isotonic solutions or aqueous solutions buffered to a pH of 7.4.
ASSAY_READOUT: ED50 (mg/kg)

SUBSTANCE_SMILES: CC[C@H]1OC(=O)[C@H](C)[C@@H](O[C@H]2C[C@@](C)(OC)[C@@H](O)[C@H](C)O2)[C@H](C)[C@@H](O[C@@H]2O[C@H](C)C[C@H]([N+](C)(C)COC(=O)C(C)(C)C)[C@H]2OC(=O)CCC(=O)O)[C@](C)(O)C[C@@H](C)C(=O)[C@H](C)[C@@H](O)[C@]1(C)O
TARGET_UNDER_TEST: Staph, Aureus (Smith)
ASSAY_READOUT: ED50
VALUE_OBSERVED: 37
//
SUBSTANCE_SMILES: CCOC(=O)CCC(=O)O[C@H]1[C@H](O[C@@H]2[C@@H](C)[C@H](O[C@H]3C[C@@](C)(OC)[C@@H](O)[C@H](C)O3)[C@@H](C)C(=O)O[C@H](CC)[C@@](C)(O)[C@H](O)[C@@H](C)C(=O)[C@H](C)C[C@@]2(C)O)O[C@H](C)C[C@@H]1[N+](C)(C)COC(=O)C(C)(C)C
TARGET_UNDER_TEST: Staph, Aureus (Smith)
ASSAY_READOUT: ED50
VALUE_OBSERVED: 58
//
SUBSTANCE_SMILES: CCC(=O)O[C@H]1[C@H](O[C@@H]2[C@@H](C)[C@H](O[C@H]3C[C@@](C)(OC)[C@@H](O)[C@H](C)O3)[C@@H](C)C(=O)O[C@H](CC)[C@@](C)(O)[C@H](O)[C@@H](C)C(=O)[C@H](C)C[C@@]2(C)O)O[C@H](C)C[C@@H]1[N+](C)(C)COC(=O)C(C)(C)C
TARGET_UNDER_TEST: Staph, Aureus (Smith)
ASSAY_READOUT: ED50
VALUE_OBSERVED: 88
//
SUBSTANCE_SMILES: CCOC(=O)CCC(=O)O[C@H]1[C@H](O[C@@H]2[C@@H](C)[C@H](O[C@H]3C[C@@](C)(OC)[C@@H](O)[C@H](C)O3)[C@@H](C)C(=O)O[C@H](CC)[C@@](C)(O)[C@H](O)[C@@H](C)C(=O)[C@H](C)C[C@@]2(C)O)O[C@H](C)C[C@@H]1[N+](C)(C)COC(=O)CCCCCC(=O)O
TARGET_UNDER_TEST: Staph, Aureus (Smith)
ASSAY_READOUT: ED50
VALUE_OBSERVED: 47
